assay: Solubility at pH 2.0; type: physicochemical; conditions: buffer
Form field: solubility (one value per entry).
Write the quantity with the unit trailing the number.

CCCCCOC(=O)N1CCN(C(=O)[C@H](CCC(=O)O)NC(=O)c2cc(N3CCC(C(=O)N4CCCC4)CC3)cc(-c3ccccc3)n2)CC1	299 µM

Could you now look at the following compound, please?
So, CCCCOC(=O)N1CCN(C(=O)[C@H](CCC(=O)O)NC(=O)c2cc(N3CCC(C(=O)N4CCCC4)CC3)cc(-c3ccccc3)n2)CC1 ? Its solubility was 921 µM

###

test: Metabolic stability in human microsomes; format: ADME, Microsome
metric: Stability

CCCCCOC(=O)N1CCN(C(=O)[C@H](CCC(=O)O)NC(=O)c2cc(N3CCC(C(N)=O)CC3)cc(-c3ccccc3)n2)CC1	Stable
CCCCCOC(=O)N1CCN(C(=O)[C@H](CCC(=O)O)NC(=O)c2cc(N3CCC(C(=O)N(CC)CC)CC3)cc(-c3ccccc3)n2)CC1	Stable
CCCCCOC(=O)N1CCN(C(=O)[C@H](CCC(=O)O)NC(=O)c2cc(N3CCN(CC(=O)N(C)C)CC3)cc(-c3ccccc3)n2)CC1	Stable

###

biological target: UniProt:Q9H244; assay: Inhibition of human P2Y12 receptor expressed in CHO cells
Catalogue of Ki values
Hey, just the number and the unit after it is fine.

Would you please look over these solved cases?
CCCCCOC(=O)N1CCN(C(=O)[C@H](CCC(=O)O)NC(=O)c2cc(N3CC(OC)C3)cc(-c3ccccc3)n2)CC1	2 nM
CCCCCOC(=O)N1CCN(C(=O)[C@H](CCC(=O)O)NC(=O)c2cc(N3CCN(CCO)CC3)cc(-c3ccccc3)n2)CC1	13 nM
CCCCCOC(=O)N1CCN(C(=O)[C@H](CCC(=O)O)NC(=O)c2cc(N3CC[C@@H](OCC(=O)N(CC)CC)C3)cc(-c3ccccc3)n2)CC1	3.5 nM
CCCCCOC(=O)N1CCN(C(=O)[C@H](CCC(=O)O)NC(=O)c2cc(N3CCCC(N4CCCC4)C3)cc(-c3ccccc3)n2)CC1 (stereo partly drawn)	11 nM
CCCCCOC(=O)N1CCN(C(=O)[C@H](CCC(=O)O)NC(=O)c2cc(N3CCN(CCOC)CC3)cc(-c3ccccc3)n2)CC1	8.3 nM
CCCCCOC(=O)N1CCN(C(=O)[C@H](CCC(=O)O)NC(=O)c2cc(N3CC[C@H](C(=O)N(C)C)C3)cc(-c3ccccc3)n2)CC1	26 nM
CCCCCOC(=O)N1CCN(C(=O)[C@H](CCC(=O)O)NC(=O)c2cc(N3CCC(CNCC)CC3)cc(-c3ccccc3)n2)CC1	1.5 nM
CCCCCOC(=O)N1CCN(C(=O)[C@H](CCC(=O)O)NC(=O)c2cc(N3CCC(C(=O)NC(C)C)CC3)cc(-c3ccccc3)n2)CC1	6 nM
CCCCCOC(=O)N1CCN(C(=O)[C@H](CCC(=O)O)NC(=O)c2cc(N3CCC(CCOC)CC3)cc(-c3ccccc3)n2)CC1	11 nM
CCCCCOC(=O)N1CCN(C(=O)[C@H](CCC(=O)O)NC(=O)c2cc(N3CCN(CC(=O)N(C)C)CC3)cc(-c3ccccc3)n2)CC1	4.9 nM

Field Ki (system: UniProt:Q9H244) for entry CCCCCOC(=O)N1CCN(C(=O)[C@H](CCC(=O)O)NC(=O)c2cc(N3CCN(CCC)CC3)cc(-c3ccccc3)n2)CC1 = 29 nM

Item CCCCCOC(=O)N1CCN(C(=O)[C@H](CCC(=O)O)NC(=O)c2cc(N3CCC(CCN(C)C)CC3)cc(-c3ccccc3)n2)CC1 was tested on UniProt:Q9H244; the reported Ki is 12 nM

Record CCCCCOC(=O)N1CCN(C(=O)[C@H](CCC(=O)O)NC(=O)c2cc(N3CCC(CN(CC)CC)CC3)cc(-c3ccccc3)n2)CC1 / UniProt:Q9H244, Ki recorded as 4 nM

Tested system UniProt:Q9H244; Ki recorded for CCCCOC(=O)N1CCN(C(=O)[C@H](CCC(=O)O)NC(=O)c2cc(N3CCC(CN(C)C)CC3)cc(-c3ccccc3)n2)CC1 was 3.2 nM

Record CCCCCOC(=O)N1CCN(C(=O)[C@H](CCC(=O)O)NC(=O)c2cc(N3CCN(C(=O)N4CCCC4)CC3)cc(-c3ccccc3)n2)CC1 / UniProt:Q9H244, Ki recorded as 10 nM

###

experiment: Antiplatelet activity in human platelet rich plasma assessed as inhibition of ADP-induced platelet aggregation relative to AZD-6140; format: functional
# fold change (FC) per entry

Examples with answers:
CCCCCOC(=O)N1CCN(C(=O)[C@H](CCC(=O)O)NC(=O)c2cc(N3CCN(CC(=O)N(C)C)CC3)cc(-c3ccccc3)n2)CC1	1.1
CCCCCOC(=O)N1CCN(C(=O)[C@H](CCC(=O)O)NC(=O)c2cc(N3CCN(C(=O)C(C)C)CC3)cc(-c3ccccc3)n2)CC1	6.6
CCCCCOC(=O)N1CCN(C(=O)[C@H](CCC(=O)O)NC(=O)c2cc(N3CCC(C(=O)N4CCC4)CC3)cc(-c3ccccc3)n2)CC1	0.64
CCCCCOC(=O)N1CCN(C(=O)[C@H](CCC(=O)O)NC(=O)c2cc(N3CCN(CCO)CC3)cc(-c3ccccc3)n2)CC1	1.1
CCCCCOC(=O)N1CCN(C(=O)[C@H](CCC(=O)O)NC(=O)c2cc(N3CC(CNC)C3)cc(-c3ccccc3)n2)CC1	1.9

Shift focus to the following entry.
GET /value?item= CCCCCOC(=O)N1CCN(C(=O)[C@H](CCC(=O)O)NC(=O)c2cc(N3CC[C@@H](C(=O)N(CC)CC)C3)cc(-c3ccccc3)n2)CC1 &field=fold change (FC) returns 5

###

assay: Volume of distribution at steady state in Beagle dog at 0.5 mg/kg, iv and 1 mg/kg, po; assay type: ADME, organism-based, Canis lupus familiaris; settings: in vivo, read-out: Vdss
metric: Vd (L/kg)
# unit: L/kg | format: bare number

CCCCCOC(=O)N1CCN(C(=O)[C@H](CCC(=O)O)NC(=O)c2cc(N3CCC(C(=O)N4CCCC4)CC3)cc(-c3ccccc3)n2)CC1	0.18

Field Vd (entry CCCCOC(=O)N1CCN(C(=O)[C@H](CCC(=O)O)NC(=O)c2cc(N3CCC(C(=O)N4CCCC4)CC3)cc(-c3ccccc3)n2)CC1 ) reads 0.22

###

target: P2Y purinoceptor 12 (Homo sapiens); assay: Inhibition of human P2Y12 receptor expressed in CHO cells
Sequence (Q9H244 whole entry): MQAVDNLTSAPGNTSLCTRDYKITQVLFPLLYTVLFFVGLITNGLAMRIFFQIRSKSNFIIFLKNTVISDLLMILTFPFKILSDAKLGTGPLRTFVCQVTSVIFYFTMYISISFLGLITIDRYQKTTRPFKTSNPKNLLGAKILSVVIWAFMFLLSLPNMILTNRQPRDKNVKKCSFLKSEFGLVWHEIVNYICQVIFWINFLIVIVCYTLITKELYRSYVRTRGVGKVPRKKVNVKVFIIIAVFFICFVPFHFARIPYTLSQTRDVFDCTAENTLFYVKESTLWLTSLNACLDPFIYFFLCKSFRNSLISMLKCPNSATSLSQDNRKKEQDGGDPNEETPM
metric: pKi
Entry type: numeric. Quantity: pKi, the -log10 of concentration in molar units.

CCCCCOC(=O)N1CCN(C(=O)[C@H](CCC(=O)O)NC(=O)c2cc(N3CCN(CCS(C)(=O)=O)CC3)cc(-c3ccccc3)n2)CC1	8.05
CCCCCOC(=O)N1CCN(C(=O)[C@H](CCC(=O)O)NC(=O)c2cc(N3CCC(CN)CC3)cc(-c3ccccc3)n2)CC1	7.82
CCCCCOC(=O)N1CCN(C(=O)[C@H](CCC(=O)O)NC(=O)c2cc(N3CCC(C(=O)N(C)C)CC3)cc(-c3ccccc3)n2)CC1	9.01
CCCCCOC(=O)N1CCN(C(=O)[C@H](CCC(=O)O)NC(=O)c2cc(N3CCN(CCOCCC)CC3)cc(-c3ccccc3)n2)CC1	8.20

Summary for this compound, CCCCCOC(=O)N1CCN(C(=O)[C@H](CCC(=O)O)NC(=O)c2cc(N3CCN(CCN(C)C)CC3)cc(-c3ccccc3)n2)CC1 : pKi is 8.07

For reference, reported pKi for CCCCOC(=O)N1CCN(C(=O)[C@H](CCC(=O)O)NC(=O)c2cc(N3CCC(C(=O)NC(C)C)CC3)cc(-c3ccccc3)n2)CC1 stands at 8.37

Measured pKi of CCCCCOC(=O)N1CCN(C(=O)[C@H](CCC(=O)O)NC(=O)c2cc(N3CCC(C(=O)N(CC)CC)CC3)cc(-c3ccccc3)n2)CC1 : 8.40

###

experiment: in vivo; conditions: Sprague-Dawley, rat, po, 5 mg/kg
metric: bioavailability (%)
Use % as the unit, but write only the number.

Lab note: CCCCCOC(=O)N1CCN(C(=O)[C@H](CCC(=O)O)NC(=O)c2cc(N3CCC(C(N)=O)CC3)cc(-c3ccccc3)n2)CC1 gave bioavailability of 2

###

# Lookup of reported fraction unbound at 2 µM keyed by entry
assay: Protein binding in human plasma assessed as fraction unbound at 2 uM
Just the number.

CCCCCOC(=O)N1CCN(C(=O)[C@H](CCC(=O)O)NC(=O)c2cc(N3CCC(C(=O)N4CCCC4)CC3)cc(-c3ccccc3)n2)CC1	0.057

Turning now to a further record.
Input CCCCOC(=O)N1CCN(C(=O)[C@H](CCC(=O)O)NC(=O)c2cc(N3CCC(C(=O)N4CCCC4)CC3)cc(-c3ccccc3)n2)CC1 . Output fraction unbound at 2 µM: 0.044
